Molecular target: T1, ICAM-1 protein antigen (R&D System) (human, UniProt P05362 28-480)
T1 construct: The assay paragraphs say only 'ICAM-1 (R&D System)'; also called antigen ICAM-1; ICAM-1 antigen
T1 sequence (P05362 28-480 limits assumed): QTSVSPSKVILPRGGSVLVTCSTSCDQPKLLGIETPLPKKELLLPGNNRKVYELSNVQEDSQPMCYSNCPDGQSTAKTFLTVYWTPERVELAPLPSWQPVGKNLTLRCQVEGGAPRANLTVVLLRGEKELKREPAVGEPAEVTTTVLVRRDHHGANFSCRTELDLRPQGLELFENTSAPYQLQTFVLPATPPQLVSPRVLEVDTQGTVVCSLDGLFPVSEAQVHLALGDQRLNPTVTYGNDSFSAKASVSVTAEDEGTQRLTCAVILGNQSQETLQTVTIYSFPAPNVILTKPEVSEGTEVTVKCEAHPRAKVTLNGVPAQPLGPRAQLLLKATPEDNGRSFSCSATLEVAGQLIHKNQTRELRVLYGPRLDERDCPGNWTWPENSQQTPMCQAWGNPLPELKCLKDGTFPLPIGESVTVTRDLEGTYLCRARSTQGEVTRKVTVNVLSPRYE
Assay: ELISA, ICAM-1 coated 100 ng/well, anti-human Ig-HRP
Method: The antigen ICAM-1 (ICAM-1; R&D System) was coated on a 96 well plate at 100 ng per well, followed by blocking. […] After the reaction was stopped by treatment with 1N H₂SO₄ solution in the same amount (100 ul) as the TMB solution, the OD value was measured at 450 nm.
property: OD 450 nm at 2.5 ng/ml antibody

Request: Answer with the recorded OD 450 nm at 2.5 ng/ml antibody of humanized anti-ICAM-1 antibody H17L3 (VH17 + VL3), human IgG4/kappa (antibody, V domains shown, The Arg at the VL/CL junction is in neither entry) VH: QVQLVQSGAEVKKPGASVKISCKGSGYTFTDYALHWVRQAPGQRLEWMGVISTYSGNTDYNQKFRGRATITVDTSASTAYMELSSLRSEDTAVYYCARSLYFGSSGFDYWGQGTALTVSS VL: DVVLTQTPLSSPVTLGQPASISCRSSQTLVYRNGNTYLHWYLQRAGQPPRLLIYKVSNRFSGVPDRFSGSGAGTDFTLKISRVEAEDVGVYFCSQNTHFPYTFGGGTKLEIKT only.
Result: 0.135 OD (450 nm)

Request: Look up OD 450 nm at 2.5 ng/ml antibody of humanized anti-ICAM-1 antibody H17L4 (VH17 + VL4), human IgG4/kappa (antibody, V domains shown, The Arg at the VL/CL junction is in neither entry; also called DNP007; DNP007 antibody (H17L4 antibody)) VH: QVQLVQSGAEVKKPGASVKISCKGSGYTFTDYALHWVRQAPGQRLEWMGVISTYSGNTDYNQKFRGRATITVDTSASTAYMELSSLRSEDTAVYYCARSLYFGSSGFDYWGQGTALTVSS VL: DVVLTQTPLSSPVTLGQPASISCRSSQTLVYRNGNTYLHWYQQRPGQPPRLLIYKVSNRFSGVPDRFSGSGAGTDFTLKISRVEAEDVGVYFCSQNTHFPYTFGGGTKLEIKT and report it.
Result: 0.136 OD (450 nm)

Request: Please give the documented OD 450 nm at 2.5 ng/ml antibody of humanized anti-ICAM-1 antibody H5L3 (VH5 + VL3), human IgG4/kappa (antibody, V domains shown, The Arg at the VL/CL junction is in neither entry) VH: QVQLVQSGAEVKKPGASVKISCKASGYTFTDYALHWVRQAPGQRLEWMGVISTYSGNTDYNQKFRGRVTITVDKSATTAYMELSSLRSEDTAVYYCARSLYFGSSGFDYWGQGTALTVSS VL: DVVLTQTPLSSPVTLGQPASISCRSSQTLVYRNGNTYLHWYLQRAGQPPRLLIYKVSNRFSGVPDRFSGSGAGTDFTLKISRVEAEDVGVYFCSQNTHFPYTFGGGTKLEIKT
Result: 0.128 OD (450 nm)

Request: For humanized anti-ICAM-1 antibody H17L1 (VH17 + VL1), human IgG4/kappa (antibody, V domains shown) VH: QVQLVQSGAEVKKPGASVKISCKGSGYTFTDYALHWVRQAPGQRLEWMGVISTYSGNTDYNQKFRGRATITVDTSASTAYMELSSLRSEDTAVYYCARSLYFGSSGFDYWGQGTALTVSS VL: DVVLTQSPLSLPVTLGQPASISCRSSQTLVYRNGNTYLHWYQQRPGQSPRLLIYKVSNRFSGVPDRFSGSGSGTDFTLKISRVEAEDVGVYFCSQNTHFPYTFGGGTKLEIKT , write its OD 450 nm at 2.5 ng/ml antibody.
Result: 0.119 OD (450 nm)

Request: Quickly give me recorded OD 450 nm at 2.5 ng/ml antibody for humanized anti-ICAM-1 antibody H4L3 (VH4 + VL3), human IgG4/kappa (antibody, V domains shown, The Arg at the VL/CL junction is in neither entry) VH: QVQLVQSGAEVKKPGASVKVSCKASGYTFTDYALHWVRQAPGQRLEWIGVISTYSGNTDYNQKFRGRVTMTRDTSATTAYLELSSLRSEDTAVYYCARSLYFGSSGFDYWGQGTALTVSS VL: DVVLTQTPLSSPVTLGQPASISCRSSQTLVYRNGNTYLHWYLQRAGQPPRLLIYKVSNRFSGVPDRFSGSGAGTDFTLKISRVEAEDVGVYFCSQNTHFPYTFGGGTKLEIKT
Result: 0.115 OD (450 nm)

Request: Quick one: give measured OD 450 nm at 2.5 ng/ml antibody for chimeric anti-ICAM-1 antibody SI9 (mouse SI9 variable regions, human IgG4/kappa constant regions) (antibody, the hinge lies in the heavy chain; also called chimeric antibody SI9; SI9 Chimeric; not shown: human IgG4 heavy chain constant region, GenBank AIC59040.1 (printed), hinge 'CPSCP' modified to 'CPPCP' (position not pr); human kappa light chain constant region, GenBank AAA58989.1 (printed)) heavy: QVQLQQSGAELVRPGVSVKISCKGSGYTFTDYALHWVKQSHAKSLEWIGVISTYSGNTDYNQKFRGKATMTVDKSSTTAYLELARLTSEDSAIHYCARSLYFGSSGFDYWGQGTALTVSS light: DVVLTQTPLSLPVNLGDQASISCRSSQTLVYRNGNTYLHWYLQKAGQSPKLLIYKVSNRFSGVPDRFSGSGSGTDFTLKISRVEAEDLGVYFCSQNTHFPYTFGGGTKIKR
Result: 0.118 OD (450 nm)
